System: L1210
Test: Inhibition of [3H]thymidine uptake in L1210 cells at 1 uM
Format: functional
Conditions: Mus musculus
Heads up, the class ranges for inhibition at 1 µM are group A = under 50%, group B = from 50% up to 60%, group C = 60% and over

Inquiry: Which category does the recorded inhibition at 1 µM put "COCCOc1nc(N2CCCCC2)c2nc(OCCOC)nc(N3CCCCC3)c2n1" in?
Reply text: group A

Inquiry: Category of "COc1ccc(CNc2nc(N(CCO)CCO)nc3c(NCc4ccc(OC)c(OC)c4)nc(N(CCO)CCO)nc23)cc1OC" :
Reply text: group C

Inquiry: Classify this molecule: COc1ccc(CN(C)c2nc(NCC(C)O)nc3c(N(C)Cc4ccc(OC)cc4)nc(NCC(C)O)nc23)cc1 (stereo not given)
Reply text: group A

====

Test system: L1210
Test: Inhibition of [3H]-thymidine uptake in L1210 cells in the presence of 5 mg/mL human AGP at 10 uM
Assay type: functional, Mus musculus
Note to self: values exactly at 30% are Condition met. So Inhibition at or above 30% is Condition met, below is Condition not met.

Study these solved cases before continuing.
[[record]]
molecule = "CC1(C)OC[C@H](COc2nc(N3CCCCC3)c3nc(OC[C@H]4COC(C)(C)O4)nc(N4CCCCC4)c3n2)O1"
class = "Condition met"

[[record]]
molecule = "OCC(O)COc1nc(N2CCCCC2)c2nc(OC[C@@H](O)CO)nc(N3CCCCC3)c2n1 (stereo partly specified)"
class = "Condition not met"

[[record]]
molecule = "OCC(O)CNc1nc(N2CCCCC2)c2nc(NCC(O)CO)nc(N3CCCCC3)c2n1 (stereo unspecified)"
class = "Condition not met"


Inquiry: Can "OCCN(CCO)c1nc(NCc2ccccc2)c2nc(N(CCO)CCO)nc(NCc3ccccc3)c2n1" be said to have Inhibition at or above 30%?
Reply text: Condition met

Inquiry: Does OCC(O)COc1nc(N2CCCCC2)c2nc(OCC(O)CO)nc(N3CCCCC3)c2n1 (stereo unspecified) have a reported Inhibition of at least 30%?
Reply text: Condition met

Inquiry: Quick check: does COCC(COc1nc(N2CCCCC2)c2nc(OCC(COC)OC)nc(N3CCCCC3)c2n1)OC (stereo unspecified) have Inhibition greater than or equal to 30%?
Reply text: Condition met

====

Each record here notes measured inhibition at 1 µM.
Tested on: L1210
Test: Inhibition of [3H]thymidine uptake in L1210 cells at 1 uM
Assay type: functional
Settings: Mus musculus
Just the number please, in %, no unit attached.

Inquiry: # input molecule: "COCCOc1nc(N(C)Cc2ccccc2)c2nc(OCCOC)nc(N(C)Cc3ccccc3)c2n1" ; wanted: its inhibition at 1 µM
Reply text: 17

Inquiry: Can you share its inhibition at 1 µM? I mean this molecule: "CC1(C)OC[C@H](COc2nc(N3CCCCC3)c3nc(OC[C@H]4COC(C)(C)O4)nc(N4CCCCC4)c3n2)O1"
Reply text: 47

Inquiry: Which measured inhibition at 1 µM value corresponds to "C[C@H](O)COc1nc(N2CCCCC2)c2nc(OC[C@@H](C)O)nc(N3CCCCC3)c2n1" ?
Reply text: 47

Inquiry: So what's the measured inhibition at 1 µM for this one? "OCCN(CCO)c1nc(NCc2ccccc2)c2nc(N(CCO)CCO)nc(NCc3ccccc3)c2n1"
Reply text: 51

Inquiry: GET /values?readout=inhibition at 1 µM&item= "COc1ccc(CNc2nc(NCCO)nc3c(NCc4ccc(OC)cc4)nc(NCCO)nc23)cc1"
Reply text: 56

====

Collected pIC50 values appear next to each entry.
Test system: L1210
Assay: Inhibition of [3H]thymidine uptake in L1210 cells
Format: functional, cell-based
Details: Mus musculus
pIC50 is defined as minus the log10 of a concentration measured in mol/L.

[[record]]
molecule = "CCCOc1nc(N2CCCCC2)c2nc(OCCC)nc(N3CCCCC3)c2n1"
readout = "pIC50"
value = 4.28

[[record]]
molecule = "CN(Cc1ccccc1)c1nc(OCCCO)nc2c(N(C)Cc3ccccc3)nc(OCCCO)nc12"
readout = "pIC50"
value = 5.85

[[record]]
molecule = "CC(O)CNc1nc(NCc2ccc3c(c2)OCO3)c2nc(NCC(C)O)nc(NCc3ccc4c(c3)OCO4)c2n1 (stereo not given)"
readout = "pIC50"
value = 6.59


Inquiry: GET /values?readout=pIC50&item= COc1ccc(CNc2nc(NCC(C)O)nc3c(NCc4ccc(OC)cc4)nc(NCC(C)O)nc23)cc1 (stereo not given)
Reply text: 6.15

Inquiry: // lookup pIC50 for OCCN(CCO)c1nc(N2CCCC(O)C2)c2nc(N(CCO)CCO)nc(N3CCCC(O)C3)c2n1 (stereo not given)
Reply text: 5.59

Inquiry: So what does the record say about pIC50 for "OCCOc1nc(N2CCCCC2)c2nc(OCCO)nc(N3CCCCC3)c2n1" ?
Reply text: 5.20

Inquiry: Which pIC50 value belongs to "COc1ccc(CNc2nc(NCCO)nc3c(NCc4ccc(OC)c(OC)c4)nc(NCCO)nc23)cc1OC" ?
Reply text: 6.30

Inquiry: What value of measured pIC50 is listed for OCCN(CCO)c1nc(N2CCCCC2)c2nc(N(CCO)CCO)nc(N3CCCCC3)c2n1 [DIPYRIDAMOLE] ?
Reply text: 6.47

Inquiry: Recorded pIC50 of COc1ccc(CNc2nc(NCC(C)O)nc3c(NCc4ccc(OC)c(OC)c4)nc(NCC(C)O)nc23)cc1OC (stereo not given) , please.
Reply text: 6.40

====

Tested on: L1210
Experiment: Inhibition of [3H]thymidine uptake in L1210 cells at 1 uM
Assay type: functional
Conditions: Mus musculus
// reported inhibition at 1 µM per item

Example molecules with recorded inhibition at 1 µM:
[[record]]
molecule = "COCCOc1nc(N(Cc2ccccc2)Cc2ccccc2)c2nc(OCCOC)nc(N(Cc3ccccc3)Cc3ccccc3)c2n1"
readout = "inhibition at 1 µM"
value = "9%"

[[record]]
molecule = "COCCOc1nc(NCc2ccccc2)c2nc(OCCOC)nc(NCc3ccccc3)c2n1"
readout = "inhibition at 1 µM"
value = "31%"


Inquiry: // query inhibition at 1 µM value for entry CC(O)CNc1nc(NCc2ccccc2)c2nc(NCC(C)O)nc(NCc3ccccc3)c2n1 (stereo not drawn)
Reply text: 33%

====

We begin with a simple list: items and their reported inhibition at 0.1 µM.
Tested on: L1210
Assay: Compound was tested for the inhibition of [3H]thymidine uptake in L1210 cells at 0.1 uM
Format: functional
Settings: Mus musculus

Examples from the recorded data:
[[record]]
compound = "COc1ccc(CN(C)c2nc(N(CCO)CCO)nc3c(N(C)Cc4ccc(OC)cc4)nc(N(CCO)CCO)nc23)cc1"
readout = "inhibition at 0.1 µM"
value = "27%"

[[record]]
compound = "COc1ccc(CNc2nc(NCC(C)O)nc3c(NCc4ccc(OC)cc4)nc(NCC(C)O)nc23)cc1 (stereo not drawn)"
readout = "inhibition at 0.1 µM"
value = "21%"

[[record]]
compound = "COc1ccc(CNc2nc(NCCO)nc3c(NCc4ccc(OC)cc4)nc(NCCO)nc23)cc1"
readout = "inhibition at 0.1 µM"
value = "10%"

[[record]]
compound = "COc1ccc(CN(C)c2nc(OCCO)nc3c(N(C)Cc4ccc(OC)cc4)nc(OCCO)nc23)cc1"
readout = "inhibition at 0.1 µM"
value = "27%"


Inquiry: Would you mind telling me what inhibition at 0.1 µM value was observed for CC(O)CNc1nc(N(C)Cc2ccccc2)c2nc(NCC(C)O)nc(N(C)Cc3ccccc3)c2n1 (stereo not drawn) ?
Reply text: 24%

Inquiry: Dear colleague, I am looking for the recorded inhibition at 0.1 µM of the following compound: COc1ccc(CNc2nc(NCC(C)O)nc3c(NCc4ccc(OC)c(OC)c4)nc(NCC(C)O)nc23)cc1OC (stereo not drawn)
Reply text: 38%

Inquiry: Look up inhibition at 0.1 µM for this compound: "COc1ccc(CN(C)c2nc(OCCCO)nc3c(N(C)Cc4ccc(OC)cc4)nc(OCCCO)nc23)cc1"
Reply text: 38%

Inquiry: Can you share its inhibition at 0.1 µM? I mean this compound: "COc1ccc(CNc2nc(NCCO)nc3c(NCc4ccc(OC)c(OC)c4)nc(NCCO)nc23)cc1OC"
Reply text: 29%

====

System: L1210
Test: Inhibition of [3H]thymidine uptake in L1210 cells at 10 uM
Format: functional
Details: Mus musculus
Recorded inhibition at 10 µM for the following molecules
All answers are understood in %, so give the number only.

Guide cases for inhibition at 10 µM, answers given:
[[record]]
molecule = "CCCOc1nc(N(C)Cc2ccccc2)c2nc(OCCC)nc(N(C)Cc3ccccc3)c2n1"
value = 8

[[record]]
molecule = "COCC(COc1nc(N2CCCCC2)c2nc(OCC(COC)OC)nc(N3CCCCC3)c2n1)OC (centres undefined)"
value = 87

[[record]]
molecule = "OCC(O)COc1nc(N2CCCCC2)c2nc(OC[C@@H](O)CO)nc(N3CCCCC3)c2n1 (some centres undefined)"
value = 37

[[record]]
molecule = "COCC(C)Oc1nc(N2CCCCC2)c2nc(OC(C)COC)nc(N3CCCCC3)c2n1 (centres undefined)"
value = 62

[[record]]
molecule = "c1ccc(CNc2ncnc3c(NCc4ccccc4)ncnc23)cc1"
value = 40

[[record]]
molecule = "OCCN(CCO)c1nc(NCc2ccccc2)c2nc(N(CCO)CCO)nc(NCc3ccccc3)c2n1"
value = 91

[[record]]
molecule = "OCCCOc1nc(N2CCCCC2)c2nc(OCCCO)nc(N3CCCCC3)c2n1"
value = 76

[[record]]
molecule = "CC1(C)OC[C@H](COc2nc(N3CCCCC3)c3nc(OC[C@H]4COC(C)(C)O4)nc(N4CCCCC4)c3n2)O1"
value = 87


Note: attention shifts to another entry.
Inquiry: Which inhibition at 10 µM is reported for this molecule? OCC(O)COc1nc(N2CCCCC2)c2nc(OCC(O)CO)nc(N3CCCCC3)c2n1 (centres undefined)
Reply text: 32
